assay: protein stability index of a GFP-peptide fusion (yeast GPS) (PSI 1-4); higher = more stable; sorted into four equal gates, so the index is relative within each strain; details: san1∆

[
  {
    "ordered-residues": "GINPNTFRIFHNHDTGC [YDL088C/ASM4]",
    "protein stability index": 1.4
  },
  {
    "ordered-residues": "KKIVDDTIMENPEPNKK [IRR1]",
    "protein stability index": 2.53
  },
  {
    "ordered-residues": "DLVRDIDIDKLIQLGVK [SRP72]",
    "protein stability index": 2.71
  },
  {
    "ordered-residues": "KDIAKRQFKEILTVKEE [RRP40]",
    "protein stability index": 2.46
  },
  {
    "ordered-residues": "IILPLDNATLTELVDKA [SSN2]",
    "protein stability index": 2.6
  },
  {
    "ordered-residues": "YSRILKSMGRKCFDDIE [YCG1]",
    "protein stability index": 2.92
  },
  {
    "ordered-residues": "GTGKPEAIHDMFTYSQE [RPN2]",
    "protein stability index": 3.12
  },
  {
    "ordered-residues": "GYLIQVLLTFLQDELHK [YCS4]",
    "protein stability index": 2.01
  },
  {
    "ordered-residues": "PIKNRTSKSFSKLLYDD [SIN4]",
    "protein stability index": 2.22
  },
  {
    "ordered-residues": "LFQELSKVVDDMPSLRL [GRR1]",
    "protein stability index": 2.22
  },
  {
    "ordered-residues": "SLKNTDALLNSTTEHIN [YJL039C/NUP192]",
    "protein stability index": 2.13
  },
  {
    "ordered-residues": "TFGKKADVTSNIDSSAQ [YOR098C/NUP1]",
    "protein stability index": 1.91
  },
  {
    "ordered-residues": "DQMVVGWYHSHPGFGCW [RPN11]",
    "protein stability index": 2.37
  },
  {
    "ordered-residues": "NVFNDTPRGNHWMGSSV [YMR129W/POM152]",
    "protein stability index": 2.98
  },
  {
    "ordered-residues": "NVTIAQGGVLPNIHQNL [HTA1]",
    "protein stability index": 1.36
  },
  {
    "ordered-residues": "QLENADTGTLDTKSVVG [RPN2]",
    "protein stability index": 3.08
  },
  {
    "ordered-residues": "AVKTAETGYMSRRLMKS [RPO31]",
    "protein stability index": 2.52
  },
  {
    "ordered-residues": "ENSGKEMDEKSYEKNED [LIN1]",
    "protein stability index": 3.33
  },
  {
    "ordered-residues": "KKRKNKSSGSSMATPTH [ROX3]",
    "protein stability index": 2.96
  },
  {
    "ordered-residues": "KIDIIELQKSLSLEEVE [FAS1]",
    "protein stability index": 2.52
  },
  {
    "ordered-residues": "KPMTAYARADTHFLLNI [RRP6]",
    "protein stability index": 2.34
  },
  {
    "ordered-residues": "AAGANVDNVWADVYAKA [RPP1B]",
    "protein stability index": 2.77
  },
  {
    "ordered-residues": "AEEIGVEHLLRDVRDQA [RPN8]",
    "protein stability index": 2.96
  },
  {
    "ordered-residues": "FILADAGLEITSDNLLT [RPP1B]",
    "protein stability index": 2.65
  },
  {
    "ordered-residues": "KNGALVSNILSAFKFIH [YJL039C/NUP192]",
    "protein stability index": 1.51
  },
  {
    "ordered-residues": "CWAVRADVHFLDCDGGF [RRP45]",
    "protein stability index": 2.9
  },
  {
    "ordered-residues": "ITHYAVRGGNIEIMGIL [RRI1]",
    "protein stability index": 2.79
  },
  {
    "ordered-residues": "LHKNFESENFKIIALQP [RGR1]",
    "protein stability index": 2.7
  },
  {
    "ordered-residues": "LFSEKTIRYLMQKQHEM [SNF6]",
    "protein stability index": 2.44
  },
  {
    "ordered-residues": "ELNDIDTKIDQVNGNIR [SMC3]",
    "protein stability index": 3.07
  },
  {
    "ordered-residues": "MSLRHFGHLMHYGNEHI [RPN1]",
    "protein stability index": 1.4
  },
  {
    "ordered-residues": "LQKEFLPHITQLEGFES [RPB2]",
    "protein stability index": 1.69
  },
  {
    "ordered-residues": "RSMSGQPPTNVQPTIGQ [SNF5]",
    "protein stability index": 3.01
  },
  {
    "ordered-residues": "FSEGTSADREIQRTLME [RPT4]",
    "protein stability index": 3.29
  },
  {
    "ordered-residues": "LQSLTSKGYVKTQFSWQ [RPS10A]",
    "protein stability index": 2.76
  },
  {
    "ordered-residues": "KRFMNTSQNPQRDAEIS [BRR2]",
    "protein stability index": 3.12
  },
  {
    "ordered-residues": "RCYQPFELFDNKTAHLS [SNU114]",
    "protein stability index": 2.53
  },
  {
    "ordered-residues": "NSSVGNKTDAQAPTTGF [YJL041W/NSP1]",
    "protein stability index": 3.19
  },
  {
    "ordered-residues": "IKWENAFVSVYSKNNPN [PRP8]",
    "protein stability index": 3.07
  },
  {
    "ordered-residues": "MNQSSIDRGLFRSLFFR [RPB2]",
    "protein stability index": 2.63
  },
  {
    "ordered-residues": "INDPTNKEYTLVHGIFG [SIN4]",
    "protein stability index": 2.25
  },
  {
    "ordered-residues": "KSRMINFLDAPGHVNFM [SNU114]",
    "protein stability index": 3.06
  },
  {
    "ordered-residues": "EELRDLYQTYHVLVGDL [FAS1]",
    "protein stability index": 2.22
  },
  {
    "ordered-residues": "GNSFNKSSNDTIEHAAD [YCG1]",
    "protein stability index": 2.37
  },
  {
    "ordered-residues": "FIEDLAPEQQVQQFAQL [UBP6]",
    "protein stability index": 3.04
  },
  {
    "ordered-residues": "NGVVKKAAAGAGSAALK [RPO31]",
    "protein stability index": 3.47
  },
  {
    "ordered-residues": "VLCTRLRLSNFFTIDHF [SIR2]",
    "protein stability index": 1.5
  },
  {
    "ordered-residues": "YQKNKPYPKSRYNRAVP [RPL10]",
    "protein stability index": 3.06
  },
  {
    "ordered-residues": "ALDYLIPPPMPKNQQYR [MED7]",
    "protein stability index": 2.5
  },
  {
    "ordered-residues": "DNPLRQIPHFNNKILEK [BRR2]",
    "protein stability index": 3.08
  },
  {
    "ordered-residues": "ISNNLALVFAALEHLKN [SRP68]",
    "protein stability index": 2.12
  },
  {
    "ordered-residues": "HSLSQAIKWDGSSGGVI [PRE3]",
    "protein stability index": 2.67
  },
  {
    "ordered-residues": "VNNTRRRVYNRVLETTL [BRN1]",
    "protein stability index": 2.87
  },
  {
    "ordered-residues": "LSQQQKDAQKKDIEKLT [YIL149C/MLP2]",
    "protein stability index": 2.78
  },
  {
    "ordered-residues": "FHILLKLILEWVAPQES [ECM29]",
    "protein stability index": 1.53
  },
  {
    "ordered-residues": "TFIYFAYFLIIVPVIST [COB]",
    "protein stability index": 1.16
  },
  {
    "ordered-residues": "TPDANLISKPAKKNNFI [UBP6]",
    "protein stability index": 3.15
  },
  {
    "ordered-residues": "LHKIFYKVLKNNGLPEC [YCG1]",
    "protein stability index": 2.45
  },
  {
    "ordered-residues": "LGKYEFSKILPAALDGL [ESC2]",
    "protein stability index": 1.61
  },
  {
    "ordered-residues": "QFQRLAPSLTVPPIASP [PRE2]",
    "protein stability index": 1.85
  }
]

###

experiment: protein stability index of a GFP-peptide fusion (yeast GPS) (PSI 1-4); higher = more stable; sorted into four equal gates, so the index is relative within each strain; settings: doa10∆
readout-type: protein stability index

[
  {
    "ordered-residues": "GGHSLEEISFSLSEGCD [PRP28]",
    "obs-value": 2.17
  },
  {
    "ordered-residues": "INDPTNKEYTLVHGIFG [SIN4]",
    "obs-value": 2.1
  },
  {
    "ordered-residues": "TNRHTLALETVLIKMVK [SIR3]",
    "obs-value": 2.84
  },
  {
    "ordered-residues": "AVDNCAICRNHIMEPCI [HRT1]",
    "obs-value": 2.12
  },
  {
    "ordered-residues": "IKRMAIRNIVEAAAVRD [RPS26A]",
    "obs-value": 1.29
  },
  {
    "ordered-residues": "SDVLFEFTKINTPLVGA [YJL039C/NUP192]",
    "obs-value": 1.66
  },
  {
    "ordered-residues": "EKENRFEIVDREKNSLE [SMC4]",
    "obs-value": 2.63
  },
  {
    "ordered-residues": "QPSYNSAIIENAFRKEE [GAL11]",
    "obs-value": 2.86
  },
  {
    "ordered-residues": "ENANADLENKFNRLKKQ [YIL149C/MLP2]",
    "obs-value": 3.06
  },
  {
    "ordered-residues": "FGAKSDEKKDSDSSKPA [YJL041W/NSP1]",
    "obs-value": 3.04
  },
  {
    "ordered-residues": "STVAKFLARVIKEKFDE [IRR1]",
    "obs-value": 2.86
  },
  {
    "ordered-residues": "CVKNHGQSSSIQSSLMT [YCS4]",
    "obs-value": 2.48
  },
  {
    "ordered-residues": "SELAVATTSVMMVNNQT [SRB6]",
    "obs-value": 3.12
  },
  {
    "ordered-residues": "LFAGYTDNVIRVWQVMT [ASC1]",
    "obs-value": 1.61
  }
]
